System: Vero E6 infected with SARS-CoV-2
Assay: inhibition of SARS-CoV-2 cytopathic effect; higher = more antiviral protection, active = above 15
Conditions: 833.33 nM; 48 h
parameter.measured: inhibition of SARS-CoV-2 cytopathic effect

compound: CCCc1nn(C)c2c(=O)[nH]c(-c3cc(S(=O)(=O)N4CCN(C)CC4)ccc3OCC)nc12
reading: 2.04% (inactive)
//
compound: CC(=O)OC[C@H](N)C(=O)O
reading: 1.65% (inactive)
//
compound: CC(NC(=O)c1ccccc1/N=C/c1c(O)ccc2ccccc12)c1ccccc1 (stereo not drawn)
reading: -2.85% (inactive)

* * *

Test system: Vero E6 infected with SARS-CoV-2
Test: inhibition of SARS-CoV-2 cytopathic effect; higher = more antiviral protection, active = above 15
Conditions: 8.33 nM; 48 h
parameter.measured: inhibition of SARS-CoV-2 cytopathic effect (%)

molecule: CC1(C)O[C@@H]2C[C@H]3[C@@H]4C[C@H](F)C5=CC(=O)C=C[C@]5(C)[C@H]4[C@@H](O)C[C@]3(C)[C@]2(C(=O)CO)O1 [flunisolide]
reading: 0.14
--
molecule: COC(=O)C1=C(C)NC(C)=C(C(=O)OC)C1c1ccccc1[N+](=O)[O-]
reading: 0.14
--
molecule: CO[C@]12C[C@@H](COC(=O)c3cncc(Br)c3)CN(C)[C@@H]1Cc1cn(C)c3cccc2c13
reading: -1.36
--
molecule: CN(C)C/C=C(/c1ccc(Br)cc1)c1cccnc1
reading: 1.8
--
molecule: Cc1noc(C)c1-c1cc(O)cc([C@@H](O)c2ccccc2)c1
reading: 1.84
--
molecule: O=C(CCCN1CCC2(CC1)C(=O)NCN2c1ccccc1)c1ccc(F)cc1
reading: 1.62
--
molecule: CN[C@@H](C)C(=O)N[C@H](C(=O)N1CCC[C@H]1c1nc(C(=O)c2ccc(F)cc2)cs1)C1CCCCC1
reading: 2.97
--
molecule: Cc1cc(Nc2ncc(Cl)c(Nc3ccccc3S(=O)(=O)C(C)C)n2)c(OC(C)C)cc1C1CCNCC1
reading: 1.21
--
molecule: CCCc1ncc(C[n+]2ccccc2C)c(N)n1
reading: 1.36
--
molecule: COc1ccc2cc3[n+](cc2c1OC)CCc1cc2c(cc1-3)OCO2
reading: -10.1
--
molecule: COc1cc(Br)c(S(=O)(=O)Nc2ccc(C(F)(F)F)c(O[C@@H]3CCN(C)C3)c2)cc1OC
reading: 2.6

* * *

System: Vero E6 infected with SARS-CoV-2
Test: morphology score (similarity to uninfected cells); higher = more like uninfected cells
Conditions: 24 h
Measured morphology score values are reported for all entries that follow.
parameter.measured: morphology score

compound: Cc1oc2nc3c(c(NC(=O)CN4CCCC4=O)c2c1C)CCCC3 (10 µM)
reading: 0.0552
--
compound: CCC[C@@H]1CC(=O)N([C@@H](CC)C(N)=O)C1 [Brivaracetam] (10 µM)
reading: 0.0266
--
compound: O=C1CC[C@@H](C(=O)N2CSC[C@H]2C(=O)O)N1 [pidotimod] (10 µM)
reading: -0.145
--
compound: CN1c2ccccc2C(=O)N2CCc3c([nH]c4ccccc34)C21 (stereo in doubt) [evodiamine] (10 µM)
reading: -0.093
--
compound: N#C/C(=C\c1ccc(O)c(O)c1)C(=O)NCCCCc1ccccc1 (0.833333 µM)
reading: 0.167
--
compound: Cl/C=C\C[N+]12CN3CN(CN(C3)C1)C2 [1-((Z)-3-chloroallyl)-1,3,5,7-tetraazaadamantan-1-ium] (10 µM)
reading: 0.0348

* * *

Tested on: Vero E6 infected with SARS-CoV-2
Assay: inhibition of SARS-CoV-2 cytopathic effect; higher = more antiviral protection, active = above 15
Conditions: 10000 nM; 48 h
parameter.measured: inhibition of SARS-CoV-2 cytopathic effect (%)

compound: CC(=O)CC/C=C(\C)CC/C=C(\C)CC/C=C(\C)CCC=C(C)C
unit.of.measure: %
reading: 0.16

compound: Cc1c(C)c2c(c(C)c1O)CCC(C)(C)O2
unit.of.measure: %
reading: -5.56

compound: CCCCNc1c(C(=O)OCC)c(C)nc2c1cnn2CC [tracazolate]
unit.of.measure: %
reading: -1.99

compound: COc1cc([C@@H]2c3cc4c(cc3[C@@H](O[C@@H]3O[C@@H]5CO[C@@H](C)O[C@H]5[C@H](O)[C@H]3O)[C@H]3COC(=O)[C@H]23)OCO4)cc(OC)c1O [etoposide]
unit.of.measure: %
reading: 4.17

compound: O=C(Nc1cccnc1)N1CCC(Cc2cccc(Oc3ccc(C(F)(F)F)cn3)c2)CC1
unit.of.measure: %
reading: -28.6

compound: COC1=CC(=O)C[C@@H](C)[C@]12Oc1c(Cl)c(OC)cc(OC)c1C2=O
unit.of.measure: %
reading: 1.84

compound: CCCN1CC(NS(=O)(=O)N(CC)CC)CC2Cc3c(O)cccc3CC21 (stereo unspecified) [quinagolide]
unit.of.measure: %
reading: -6.37

compound: O=C(O)c1ccc(O)c2ncccc12
unit.of.measure: %
reading: 1.28

compound: O=c1[nH]nc2c3c(cccc13)N=C(CN1Cc3ccccc3C1)N2
unit.of.measure: %
reading: 1.13

compound: COc1ccc(Br)cc1S(=O)(=O)NC(=O)/C=C/c1ccccc1Cc1ccc2ccccc2c1
unit.of.measure: %
reading: -0.51

compound: O=C(O)CCC(=O)Nc1ccc(S(=O)(=O)Nc2nccs2)cc1
unit.of.measure: %
reading: -0.56

compound: O=C(O)[C@H]1O[C@@H](Oc2cc3oc(-c4ccccc4)cc(=O)c3c(O)c2O)[C@H](O)[C@@H](O)[C@@H]1O
unit.of.measure: %
reading: 2.97

compound: C[C@](O)(COc1ccc(C#N)cc1)C(=O)Nc1ccc(C#N)c(C(F)(F)F)c1
unit.of.measure: %
reading: 1.37

compound: COc1ccc(-c2ccc3c(N4CCOC[C@@H]4C)nc(N4CCOC[C@@H]4C)nc3n2)cc1CO
unit.of.measure: %
reading: -6.56

compound: COc1cc(N)c(Cl)cc1C(=O)OCCCN1CCCCC1
unit.of.measure: %
reading: 1.72

compound: COC(=O)[C@@H]1C[C@H](OC(C)=O)C(=O)[C@H]2[C@@]1(C)CC[C@H]1C(=O)O[C@H](c3ccoc3)C[C@]21C
unit.of.measure: %
reading: 0.69

compound: O=[N+]([O-])O[C@@H]1CO[C@H]2[C@@H]1OC[C@@H]2O [isosorbide-mononitrate]
unit.of.measure: %
reading: 1.45

compound: CCCN(CCc1cccs1)[C@H]1CCc2c(O)cccc2C1
unit.of.measure: %
reading: -6.53

compound: Nc1ccn([C@H]2CO[C@@H](CO)S2)c(=O)n1
unit.of.measure: %
reading: -3.28

compound: COc1cccc(/C=N/N=C/c2cccc(OC)c2)c1
unit.of.measure: %
reading: 0.47

compound: O=C(O)c1ccccc1Nc1cc(Cl)ccc1C(=O)O
unit.of.measure: %
reading: -3.63

* * *

Tested on: Vero E6 infected with SARS-CoV-2
Assay: morphology score (similarity to uninfected cells); higher = more like uninfected cells
Conditions: 24 h
parameter.measured: morphology score

compound: COc1ccc(C2CC(c3ccccc3)=NN2c2ccc(S(N)(=O)=O)cc2)cc1 (stereo not given) (10 µM)
assayed.target: Vero E6 infected with SARS-CoV-2
parameter.measured: morphology score
reading: 0.152
//
compound: COc1ccc(C(=O)N2CCCc3cc(C4=NNC(=O)SC4C)ccc32)cc1OC (stereo not given) (0.833333 µM)
assayed.target: Vero E6 infected with SARS-CoV-2
parameter.measured: morphology score
reading: -0.177
//
compound: CC1(C)O[C@H]2CC(=O)OC[C@]23[C@H]2CC[C@@]4(C)[C@H](c5ccoc5)OC(=O)[C@H]5O[C@]54[C@]2(C)C(=O)C[C@@H]13 [limonin] (10 µM)
assayed.target: Vero E6 infected with SARS-CoV-2
parameter.measured: morphology score
reading: 0.289
//
compound: CC(C)[C@H](NS(=O)(=O)c1ccc(-c2ccc(Br)cc2)cc1)C(=O)O (10 µM)
assayed.target: Vero E6 infected with SARS-CoV-2
parameter.measured: morphology score
reading: -0.0577
//
compound: O=C(Nc1ccc(Cl)cc1)Nc1cccc(-c2cccc(N3CCCC3)n2)c1 (10 µM)
assayed.target: Vero E6 infected with SARS-CoV-2
parameter.measured: morphology score
reading: 0.00797
//
compound: Cc1cc(O)cc(C)c1Cl [chloroxylenol] (10 µM)
assayed.target: Vero E6 infected with SARS-CoV-2
parameter.measured: morphology score
reading: 0.0293
//
compound: CCN(CC)C(=S)SSC(=S)N(CC)CC [disulfiram] (10 µM)
assayed.target: Vero E6 infected with SARS-CoV-2
parameter.measured: morphology score
reading: 0.548
//
compound: COc1cnc(NS(=O)(=O)c2ccc(N)cc2)nc1 [sulfameter] (10 µM)
assayed.target: Vero E6 infected with SARS-CoV-2
parameter.measured: morphology score
reading: 0.131
//
compound: CNC(=O)ON(C(C)=O)C(=O)NC [caracemide] (10 µM)
assayed.target: Vero E6 infected with SARS-CoV-2
parameter.measured: morphology score
reading: 0.0974
//
compound: COc1ccc(CNC(=O)c2cc(-c3cncc(C)c3)ncc2-c2nccs2)nc1OC (10 µM)
assayed.target: Vero E6 infected with SARS-CoV-2
parameter.measured: morphology score
reading: -0.0112
